Reference for the values: patent US20190375786A1

- ASSAY_PROTOCOL: Resistance to reduction by DTT, RP-HPLC
- Format: physicochemical
- CONDITIONS_USED: 10 mM DTT; HPLC vs non-reduced peptide
ASSAY_READOUT: resistance to reduction by DTT (in words)

RESIDUE_SEQUENCE | RECORDED_VALUE
GSPDEYIERAKECCKKQDIQCCLRIFDESKDPNVMLICLFCW [SEQ ID NO: 43] | partially resistant
GSPDEYIERAKECCKKQDIQCCLRIFDESGDPNVMLICLFCW [SEQ ID NO: 44] | partially resistant
GSPDEYIERAKECCKKQDIQCCLRIFDESKDPNVMLICLFCP [SEQ ID NO: 45] | partially resistant

* * *

- ASSAY_PROTOCOL: Resistance to elevated temperature, HPLC
- Format: physicochemical
- CONDITIONS_USED: 100° C. for 1 hour; HPLC
ASSAY_READOUT: resistance to incubation at 100° C. (in words)

RESIDUE_SEQUENCE | RECORDED_VALUE
GSPDEYIERAKECCKKQDIQCCLRIFDESKDPNVMLICLFCP [SEQ ID NO: 45] | resistant
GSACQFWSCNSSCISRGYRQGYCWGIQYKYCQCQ [SEQ ID NO: 17] | resistant
